Origin of the recorded values: patent US3966773A

Test system: diastolic blood pressure
assay: Hypotensive activity in anesthetized rats
Assay type: in vivo, rat (male Wistar strain)
measurement_setup: Rattus norvegicus; intravenous; dose producing a decrease of about 10 mm. in diastolic blood pressure
Entries and their minimal effective dose

- molecule: "CCCC#CC(O)CC[C@H]1CCC(=O)[C@@H]1CCCCCCC(=O)O (stereo partly drawn) [9-oxo-15-hydroxy-16-prostynoic acid]"
  assay_system: "diastolic blood pressure"
  comparison_symbol: "="
  minimal effective dose (mg/kg): 2
- molecule: "CCCCC[C@@H](O)/C=C/[C@H]1CCC(=O)[C@@H]1CCCCSCC(=O)O (relative stereo)"
  assay_system: "diastolic blood pressure"
  comparison_symbol: "="
  minimal effective dose (mg/kg): 2
- molecule: "CCCC(C)(C)CC(O)/C=C/[C@H]1CCC(=O)[C@@H]1CCCCCCC(=O)O (relative stereo)"
  assay_system: "diastolic blood pressure"
  comparison_symbol: "="
  minimal effective dose (mg/kg): 2
- molecule: "CCCCCC(O)/C=C/[C@H]1CCC(=O)[C@@H]1CCCCC(C)(C)CC(=O)O (relative stereo)"
  assay_system: "diastolic blood pressure"
  comparison_symbol: "="
  minimal effective dose (mg/kg): 8
- molecule: "CC/C=C\\CC(O)/C=C/[C@H]1CCC(=O)[C@@H]1CCCCCCC(=O)O (relative stereo)"
  assay_system: "diastolic blood pressure"
  comparison_symbol: "<"
  minimal effective dose (mg/kg): 2
- molecule: "CCCCCC(O)/C=C/[C@H]1CCC(=O)[C@@H]1CCCCCC(C(=O)O)c1ccccc1 (relative stereo)"
  assay_system: "diastolic blood pressure"
  comparison_symbol: "="
  minimal effective dose (mg/kg): 8
- molecule: "CCCCCC(O)/C=C/[C@H]1CCC(=O)[C@@H]1CCCCOCC(=O)O (relative stereo)"
  assay_system: "diastolic blood pressure"
  comparison_symbol: "<"
  minimal effective dose (mg/kg): 2
- molecule: "CCCCCC(O)/C=C/[C@H]1CCC(=O)[C@@H]1CCCCSCC(=O)O (relative stereo)"
  assay_system: "diastolic blood pressure"
  comparison_symbol: "="
  minimal effective dose (mg/kg): 2
- molecule: "CCCCC(C)(C)C(O)/C=C/[C@H]1CCC(=O)[C@@H]1CCCCSCC(=O)O (relative stereo)"
  assay_system: "diastolic blood pressure"
  comparison_symbol: "<"
  minimal effective dose (mg/kg): 2
- molecule: "CCCCC(C)(C)C(O)/C=C/[C@H]1CCC(=O)[C@@H]1CCCCCCC(=O)O (relative stereo)"
  assay_system: "diastolic blood pressure"
  comparison_symbol: "<"
  minimal effective dose (mg/kg): 2
- molecule: "CCCCCC(O)CC[C@H]1CCC(=O)[C@@H]1CCCCCC(CC)C(=O)O (stereo partly drawn) [2-ethyl-9-oxo-15-hydroxy-prostanoic acid, 9-oxo-15-hydroxy-2-ethyl-prostanoic acid]"
  assay_system: "diastolic blood pressure"
  comparison_symbol: "="
  minimal effective dose (mg/kg): 0.2
- molecule: "CCC/C=C/C(O)CC[C@H]1CCC(=O)[C@@H]1CCCCCCC(=O)O (relative stereo)"
  assay_system: "diastolic blood pressure"
  comparison_symbol: "<"
  minimal effective dose (mg/kg): 2
- molecule: "CCCCC(CC)C(O)/C=C/[C@H]1CCC(=O)[C@@H]1CCCCCCC(=O)O (relative stereo)"
  assay_system: "diastolic blood pressure"
  comparison_symbol: "<"
  minimal effective dose (mg/kg): 8
- molecule: "CCCCCC(O)/C=C/[C@H]1CCC(=O)[C@]1(C)CCCCCCC(=O)O (relative stereo)"
  assay_system: "diastolic blood pressure"
  comparison_symbol: "="
  minimal effective dose (mg/kg): 2
- molecule: "CCCCC[C@@H](O)/C=C/[C@H]1CCCC(=O)[C@@H]1CCCCCCC(=O)O (relative stereo)"
  assay_system: "diastolic blood pressure"
  comparison_symbol: "="
  minimal effective dose (mg/kg): 2
- molecule: "CC/C=C\\CC(O)/C=C/[C@H]1CCC(=O)[C@@H]1C/C=C\\CCCC(=O)O (relative stereo)"
  assay_system: "diastolic blood pressure"
  comparison_symbol: "<"
  minimal effective dose (mg/kg): 2
- molecule: "CCCCCC(O)/C=C/[C@H]1CCC(=O)[C@@H]1CCCCCCCCC(=O)O (relative stereo)"
  assay_system: "diastolic blood pressure"
  comparison_symbol: "<"
  minimal effective dose (mg/kg): 8
- molecule: "CCCCCC(O)/C=C/[C@H]1CCCC(=O)[C@@H]1CCCCCCC(=O)OCC (relative stereo)"
  assay_system: "diastolic blood pressure"
  comparison_symbol: "="
  minimal effective dose (mg/kg): 2
- molecule: "CC/C=C\\CC(C)(O)/C=C/[C@H]1CCC(=O)[C@@H]1C/C=C\\CCCC(=O)O (stereo partly drawn)"
  assay_system: "diastolic blood pressure"
  comparison_symbol: "<"
  minimal effective dose (mg/kg): 2
- molecule: "CCCCCC(O)/C=C/[C@H]1CCC(=O)[C@@H]1CCCCCC(C)C(=O)O (relative stereo)"
  assay_system: "diastolic blood pressure"
  comparison_symbol: "="
  minimal effective dose (mg/kg): 2
- molecule: "CCCCCC(O)/C=C/[C@H]1CCC(=O)[C@@H]1CCCCCC(F)C(=O)O (relative stereo)"
  assay_system: "diastolic blood pressure"
  comparison_symbol: "="
  minimal effective dose (mg/kg): 8
- molecule: "CCCCC[C@@H](O)/C=C/[C@H]1CCC(=O)[C@@H]1CCCCOCC(=O)OCC (relative stereo)"
  assay_system: "diastolic blood pressure"
  comparison_symbol: "="
  minimal effective dose (mg/kg): 0.2
- molecule: "CCCCCC(O)/C=C/[C@H]1CCCC(=O)[C@@H]1CCCCCCC(=O)O (relative stereo)"
  assay_system: "diastolic blood pressure"
  comparison_symbol: "="
  minimal effective dose (mg/kg): 2
- molecule: "CCCCC[C@@H](O)/C=C/[C@H]1CCC(=O)[C@@H]1CCCCCC(C)C(=O)O (relative stereo)"
  assay_system: "diastolic blood pressure"
  comparison_symbol: "="
  minimal effective dose (mg/kg): 2
